# Test system: MW2 (NRS123), MRSA, SCCmec IV, bla +
# Assay name: MIC determination and potentiation assay (microdilution broth)
# Assay type: cell-based
# Condition label: Staphylococcus aureus; MW2 (NRS123); agent alone; read-out: MIC

{"Cpd smiles": "CO[C@@]1(NC(=O)Cc2cccs2)C(=O)N2C(C(=O)O)=C(COC(N)=O)CS[C@@H]21", "Target or system": "MW2 (NRS123), MRSA, SCCmec IV, bla +", "Measurement units": "µg/mL", "MIC": 64}
{"Cpd smiles": "C[C@@H](O)[C@H]1C(=O)N2C(C(=O)O)=C(S[C@@H]3CN[C@H](C(=O)N(C)C)C3)[C@H](C)[C@H]12", "Target or system": "MW2 (NRS123), MRSA, SCCmec IV, bla +", "Measurement units": "µg/mL", "MIC": 4}
{"Cpd smiles": "CCO/N=C(\\C(=O)N[C@@H]1C(=O)N2C(C(=O)[O-])=C(Sc3nc(-c4cc[n+](C)cc4)cs3)CS[C@H]12)c1nsc(N)n1", "Target or system": "MW2 (NRS123), MRSA, SCCmec IV, bla +", "Measurement units": "µg/mL", "MIC": 1}
{"Cpd smiles": "N#Cc1ccc2nc(SCB(O)O)n(Cc3ccc(C(F)(F)F)cc3C(F)(F)F)c2c1", "Target or system": "MW2 (NRS123), MRSA, SCCmec IV, bla +", "Measurement units": "µg/mL", "MIC": 16}

###

# Target or system: BlaR (Staphylococcus aureus)
# Sequence (P18357 whole entry): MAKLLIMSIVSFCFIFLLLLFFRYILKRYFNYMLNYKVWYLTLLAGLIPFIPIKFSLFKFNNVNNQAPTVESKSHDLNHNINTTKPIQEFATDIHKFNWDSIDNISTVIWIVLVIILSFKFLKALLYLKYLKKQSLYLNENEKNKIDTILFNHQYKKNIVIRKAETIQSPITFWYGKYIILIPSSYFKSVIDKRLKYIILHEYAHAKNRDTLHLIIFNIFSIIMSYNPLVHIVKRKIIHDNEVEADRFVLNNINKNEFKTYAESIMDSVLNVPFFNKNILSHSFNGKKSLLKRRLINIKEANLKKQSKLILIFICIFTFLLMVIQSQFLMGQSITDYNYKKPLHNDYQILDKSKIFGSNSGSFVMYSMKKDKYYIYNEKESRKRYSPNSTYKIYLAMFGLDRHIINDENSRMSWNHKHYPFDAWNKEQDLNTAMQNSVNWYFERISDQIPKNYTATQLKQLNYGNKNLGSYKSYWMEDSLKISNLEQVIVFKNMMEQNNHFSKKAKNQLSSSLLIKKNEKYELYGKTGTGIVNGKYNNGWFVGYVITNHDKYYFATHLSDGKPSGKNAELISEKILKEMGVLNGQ
# Assay name: Live-cell fluorescent assay for BlaR inhibition (Venus reporter)
# Type: cell-based, S. aureus NRS144pCN52RI-Venus
# Condition label: compound at 100 mg/L^−1; CBAP 10 mg·L^−1; fluorescence after 2 h
Result type: % Inhibition of BlaR

{"Compound": "O=C(O)c1ccc2nc(SCB(O)O)n(Cc3ccc(C(F)(F)F)cc3C(F)(F)F)c2c1", "Target or system": "BlaR (Staphylococcus aureus)", "Test value": "92%"}
{"Compound": "OB(O)CCc1nc2ccccc2n1Cc1ccc(C(F)(F)F)cc1C(F)(F)F", "Target or system": "BlaR (Staphylococcus aureus)", "Test value": "0%"}
{"Compound": "OB(O)Cc1nc2ccccc2n1Cc1ccc(C(F)(F)F)cc1C(F)(F)F", "Target or system": "BlaR (Staphylococcus aureus)", "Test value": "99%"}
{"Compound": "O=C(CCc1ccc(F)cc1)NCc1ccc2nc(S(=O)(=O)O)n(Cc3ccc(C(F)(F)F)cc3C(F)(F)F)c2c1", "Target or system": "BlaR (Staphylococcus aureus)", "Test value": "86%"}
{"Compound": "NSc1nc([C@H](O)[C@H](O)CO)cn1Cc1ccccc1", "Target or system": "BlaR (Staphylococcus aureus)", "Test value": "33%"}
{"Compound": "NCc1cn(Cc2ccc(C(F)(F)F)cc2C(F)(F)F)c(S(=O)(=O)O)n1", "Target or system": "BlaR (Staphylococcus aureus)", "Test value": "50%"}
{"Compound": "COC(=O)c1ccc2nc(SCCCC#N)n(Cc3ccc(C(F)(F)F)cc3C(F)(F)F)c2c1", "Target or system": "BlaR (Staphylococcus aureus)", "Test value": "92%"}
{"Compound": "NCc1ccc2nc(S)n(Cc3ccc(C(F)(F)F)cc3C(F)(F)F)c2c1", "Target or system": "BlaR (Staphylococcus aureus)", "Test value": "60%"}
{"Compound": "FC(F)(F)c1ccc(Cn2c(CBr)nc3ccccc32)c(C(F)(F)F)c1", "Target or system": "BlaR (Staphylococcus aureus)", "Test value": "78%"}
{"Compound": "OCC1NC(=S)N(Cc2ccc(C(F)(F)F)cc2C(F)(F)F)N1 (centres unmarked)", "Target or system": "BlaR (Staphylococcus aureus)", "Test value": "71%"}
{"Compound": "O=S(=O)(O)c1nc2ccc(CO)cc2n1Cc1ccc(C(F)(F)F)cc1C(F)(F)F", "Target or system": "BlaR (Staphylococcus aureus)", "Test value": "97%"}
{"Compound": "COC(=O)c1ccc2nc(SCB(O)O)n(Cc3ccc(C(F)(F)F)cc3C(F)(F)F)c2c1", "Target or system": "BlaR (Staphylococcus aureus)", "Test value": "95%"}
{"Compound": "OCc1cn(Cc2ccc(C(F)(F)F)cc2C(F)(F)F)c(Cl)n1", "Target or system": "BlaR (Staphylococcus aureus)", "Test value": "43%"}
{"Compound": "OCc1nn(Cc2ccc(C(F)(F)F)cc2C(F)(F)F)c(=S)[nH]1", "Target or system": "BlaR (Staphylococcus aureus)", "Test value": "70%"}
{"Compound": "COC(=O)c1ccc2nc(S)n(Cc3ccc(C(F)(F)F)cc3C(F)(F)F)c2c1", "Target or system": "BlaR (Staphylococcus aureus)", "Test value": "10%"}
{"Compound": "O=C(/C=C/c1ccc(C(F)(F)F)cc1F)NCc1ccc2nc(S)n(Cc3ccc(C(F)(F)F)cc3C(F)(F)F)c2c1", "Target or system": "BlaR (Staphylococcus aureus)", "Test value": "79%"}
{"Compound": "COC(=O)c1ccc2nc(SCCC#N)n(Cc3ccc(C(F)(F)F)cc3C(F)(F)F)c2c1", "Target or system": "BlaR (Staphylococcus aureus)", "Test value": "89%"}

###

# Test system: S. aureus NRS144pCN52RI-Venus
# Assay name: Bacterial growth inhibition (OD600) in the fluorescent screening assay
# Format: cell-based, Staphylococcus aureus
# Condition label: compound at 100 mg/L^−1; OD600 after 2 h
Result type: % Inhibition of bacterial growth

{"Compound": "C[N+]12CC(=O)O[B-]1(CSc1nc3ccc(C#N)cc3n1Cc1ccc(C(F)(F)F)cc1C(F)(F)F)OC(=O)C2 (stereo not shown) [Compound 32]", "Target or system": "S. aureus NRS144pCN52RI-Venus", "Test value": "20%"}
{"Compound": "OCC1NC(=S)N(Cc2ccc(C(F)(F)F)cc2C(F)(F)F)N1 (stereo not shown) [Compound 77]", "Target or system": "S. aureus NRS144pCN52RI-Venus", "Test value": "30%"}
{"Compound": "O=S(=O)(O)c1nc(CO)cn1Cc1ccc(C(F)(F)F)cc1C(F)(F)F [Compound 60]", "Target or system": "S. aureus NRS144pCN52RI-Venus", "Test value": "0%"}
{"Compound": "OCc1ccc2nc(S)n(Cc3ccc(C(F)(F)F)cc3C(F)(F)F)c2c1 [Compound 17]", "Target or system": "S. aureus NRS144pCN52RI-Venus", "Test value": "99%"}
{"Compound": "O=S(=O)(O)c1nc2ccc(CO)cc2n1Cc1ccc(C(F)(F)F)cc1C(F)(F)F [Compound 18]", "Target or system": "S. aureus NRS144pCN52RI-Venus", "Test value": "0%"}
{"Compound": "O=C(/C=C/c1ccc(Cl)cc1Cl)NCc1ccc2nc(S)n(Cc3ccc(C(F)(F)F)cc3C(F)(F)F)c2c1 [Compound 25]", "Target or system": "S. aureus NRS144pCN52RI-Venus", "Test value": "50%"}
{"Compound": "COC(=O)c1ccc2nc(S)n(Cc3ccc(C(F)(F)F)cc3C(F)(F)F)c2c1 [Compound 15]", "Target or system": "S. aureus NRS144pCN52RI-Venus", "Test value": "0%"}
{"Compound": "O=C(/C=C/c1ccc(C(F)(F)F)cc1F)NCc1ccc2nc(S)n(Cc3ccc(C(F)(F)F)cc3C(F)(F)F)c2c1 [Compound 27]", "Target or system": "S. aureus NRS144pCN52RI-Venus", "Test value": "55%"}
{"Compound": "O=C(CCc1ccc(F)cc1)NCc1ccc2nc(S(=O)(=O)O)n(Cc3ccc(C(F)(F)F)cc3C(F)(F)F)c2c1 [Compound 30]", "Target or system": "S. aureus NRS144pCN52RI-Venus", "Test value": "0%"}
{"Compound": "O=S(=O)(O)c1nc2ccccc2n1Cc1ccc(Cl)cc1 [Compound 12]", "Target or system": "S. aureus NRS144pCN52RI-Venus", "Test value": "0%"}
{"Compound": "OB(O)CCc1nc2ccccc2n1Cc1ccc(C(F)(F)F)cc1C(F)(F)F [Compound 46]", "Target or system": "S. aureus NRS144pCN52RI-Venus", "Test value": "49%"}
{"Compound": "OCc1nc2ccccc2n1Cc1ccc(C(F)(F)F)cc1C(F)(F)F [Compound 40]", "Target or system": "S. aureus NRS144pCN52RI-Venus", "Test value": "25%"}
{"Compound": "NS(=O)(=O)c1nc([C@H](O)[C@H](O)CO)cn1Cc1ccccc1 [Compound 53]", "Target or system": "S. aureus NRS144pCN52RI-Venus", "Test value": "49%"}
{"Compound": "CC(C)(C)OC(=O)NCc1cn(Cc2ccc(C(F)(F)F)cc2C(F)(F)F)c(=S)[nH]1 [Compound 47]", "Target or system": "S. aureus NRS144pCN52RI-Venus", "Test value": "0%"}
{"Compound": "N#Cc1ccc2nc(N)n(Cc3ccc(C(F)(F)F)cc3C(F)(F)F)c2c1 [Compound 19]", "Target or system": "S. aureus NRS144pCN52RI-Venus", "Test value": "0%"}
{"Compound": "N#Cc1ccc2nc(SCB(O)O)n(Cc3ccc(C(F)(F)F)cc3C(F)(F)F)c2c1 [Compound 4]", "Target or system": "S. aureus NRS144pCN52RI-Venus", "Test value": "25%"}
{"Compound": "Nc1nc2ccc(CO)cc2n1Cc1ccc(C(F)(F)F)cc1C(F)(F)F [Compound 21]", "Target or system": "S. aureus NRS144pCN52RI-Venus", "Test value": "0%"}
{"Compound": "COC(=O)c1ccc2nc(N)n(Cc3ccc(C(F)(F)F)cc3C(F)(F)F)c2c1 [Compound 20]", "Target or system": "S. aureus NRS144pCN52RI-Venus", "Test value": "0%"}
{"Compound": "O=S(=O)(F)c1nc(CO)cn1Cc1ccc(C(F)(F)F)cc1C(F)(F)F [Compound 59]", "Target or system": "S. aureus NRS144pCN52RI-Venus", "Test value": "83%"}
